From: the supplement of paper PMC8728848

assay-system: Glc(a1-6)Glc(a1-6)Glc(a1-6)Glc
assay-procedure: glycan array binding signal (z-score within array); higher = stronger binding
test-conditions: glycan notation: IUPAC condensed, linker removed
The full list was thinned out, with the strongest signals kept by preference.
Listing: glycan array binding signal (z-score) of selected binders

binder: VLRB.aGPA.23-GCN4-biotin (Petromyzon marinus) (protein) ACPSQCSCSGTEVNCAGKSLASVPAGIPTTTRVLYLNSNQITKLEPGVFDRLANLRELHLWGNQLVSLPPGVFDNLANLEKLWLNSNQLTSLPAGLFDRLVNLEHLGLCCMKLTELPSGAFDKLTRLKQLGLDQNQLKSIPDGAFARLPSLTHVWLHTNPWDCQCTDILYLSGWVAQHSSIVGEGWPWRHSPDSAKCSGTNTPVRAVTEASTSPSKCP
glycan array binding signal (z-score): -0.076
//
binder: PNA (Arachis hypogaea), P02872 (protein) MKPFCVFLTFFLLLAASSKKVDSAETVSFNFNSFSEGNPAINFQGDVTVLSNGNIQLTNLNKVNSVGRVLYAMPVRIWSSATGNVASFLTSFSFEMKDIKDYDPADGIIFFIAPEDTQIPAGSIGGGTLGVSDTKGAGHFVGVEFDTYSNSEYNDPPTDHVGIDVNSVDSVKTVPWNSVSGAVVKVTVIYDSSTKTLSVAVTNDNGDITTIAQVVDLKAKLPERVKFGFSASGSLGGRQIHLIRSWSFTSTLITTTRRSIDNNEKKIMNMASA
glycan array binding signal (z-score): -0.136
//
binder: Intelectin-1a (Mus musculus) (protein) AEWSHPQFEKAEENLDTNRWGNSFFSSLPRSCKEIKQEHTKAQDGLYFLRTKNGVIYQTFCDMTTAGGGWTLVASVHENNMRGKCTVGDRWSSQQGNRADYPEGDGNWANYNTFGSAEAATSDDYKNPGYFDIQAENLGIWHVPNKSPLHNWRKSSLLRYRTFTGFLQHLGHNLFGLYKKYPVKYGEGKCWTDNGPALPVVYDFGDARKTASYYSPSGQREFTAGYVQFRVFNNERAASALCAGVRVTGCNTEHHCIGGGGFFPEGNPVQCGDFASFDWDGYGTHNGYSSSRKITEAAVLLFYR
glycan array binding signal (z-score): -0.709
//
binder: MpAFP NterminalRI GFP (Marinomonas primoryensis) (protein) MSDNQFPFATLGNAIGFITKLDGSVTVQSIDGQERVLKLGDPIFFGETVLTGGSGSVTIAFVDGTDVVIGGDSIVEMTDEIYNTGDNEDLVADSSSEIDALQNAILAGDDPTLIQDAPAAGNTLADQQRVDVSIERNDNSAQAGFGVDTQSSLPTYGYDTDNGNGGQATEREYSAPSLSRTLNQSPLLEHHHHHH
glycan array binding signal (z-score): -0.16
//
binder: EULS2 M3 (Oryza sativa) (protein) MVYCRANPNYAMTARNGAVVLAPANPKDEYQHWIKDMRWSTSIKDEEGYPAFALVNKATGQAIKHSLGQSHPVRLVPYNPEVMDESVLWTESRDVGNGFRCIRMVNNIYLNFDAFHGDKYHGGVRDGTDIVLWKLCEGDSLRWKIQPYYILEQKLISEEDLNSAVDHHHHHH
glycan array binding signal (z-score): 1.67
